SYSTEM_NAME: NaV1.5 (Homo sapiens (Human), UniProt Q14524)
Sequence (Q14524 other isoform, or with tags, fused parts or gaps): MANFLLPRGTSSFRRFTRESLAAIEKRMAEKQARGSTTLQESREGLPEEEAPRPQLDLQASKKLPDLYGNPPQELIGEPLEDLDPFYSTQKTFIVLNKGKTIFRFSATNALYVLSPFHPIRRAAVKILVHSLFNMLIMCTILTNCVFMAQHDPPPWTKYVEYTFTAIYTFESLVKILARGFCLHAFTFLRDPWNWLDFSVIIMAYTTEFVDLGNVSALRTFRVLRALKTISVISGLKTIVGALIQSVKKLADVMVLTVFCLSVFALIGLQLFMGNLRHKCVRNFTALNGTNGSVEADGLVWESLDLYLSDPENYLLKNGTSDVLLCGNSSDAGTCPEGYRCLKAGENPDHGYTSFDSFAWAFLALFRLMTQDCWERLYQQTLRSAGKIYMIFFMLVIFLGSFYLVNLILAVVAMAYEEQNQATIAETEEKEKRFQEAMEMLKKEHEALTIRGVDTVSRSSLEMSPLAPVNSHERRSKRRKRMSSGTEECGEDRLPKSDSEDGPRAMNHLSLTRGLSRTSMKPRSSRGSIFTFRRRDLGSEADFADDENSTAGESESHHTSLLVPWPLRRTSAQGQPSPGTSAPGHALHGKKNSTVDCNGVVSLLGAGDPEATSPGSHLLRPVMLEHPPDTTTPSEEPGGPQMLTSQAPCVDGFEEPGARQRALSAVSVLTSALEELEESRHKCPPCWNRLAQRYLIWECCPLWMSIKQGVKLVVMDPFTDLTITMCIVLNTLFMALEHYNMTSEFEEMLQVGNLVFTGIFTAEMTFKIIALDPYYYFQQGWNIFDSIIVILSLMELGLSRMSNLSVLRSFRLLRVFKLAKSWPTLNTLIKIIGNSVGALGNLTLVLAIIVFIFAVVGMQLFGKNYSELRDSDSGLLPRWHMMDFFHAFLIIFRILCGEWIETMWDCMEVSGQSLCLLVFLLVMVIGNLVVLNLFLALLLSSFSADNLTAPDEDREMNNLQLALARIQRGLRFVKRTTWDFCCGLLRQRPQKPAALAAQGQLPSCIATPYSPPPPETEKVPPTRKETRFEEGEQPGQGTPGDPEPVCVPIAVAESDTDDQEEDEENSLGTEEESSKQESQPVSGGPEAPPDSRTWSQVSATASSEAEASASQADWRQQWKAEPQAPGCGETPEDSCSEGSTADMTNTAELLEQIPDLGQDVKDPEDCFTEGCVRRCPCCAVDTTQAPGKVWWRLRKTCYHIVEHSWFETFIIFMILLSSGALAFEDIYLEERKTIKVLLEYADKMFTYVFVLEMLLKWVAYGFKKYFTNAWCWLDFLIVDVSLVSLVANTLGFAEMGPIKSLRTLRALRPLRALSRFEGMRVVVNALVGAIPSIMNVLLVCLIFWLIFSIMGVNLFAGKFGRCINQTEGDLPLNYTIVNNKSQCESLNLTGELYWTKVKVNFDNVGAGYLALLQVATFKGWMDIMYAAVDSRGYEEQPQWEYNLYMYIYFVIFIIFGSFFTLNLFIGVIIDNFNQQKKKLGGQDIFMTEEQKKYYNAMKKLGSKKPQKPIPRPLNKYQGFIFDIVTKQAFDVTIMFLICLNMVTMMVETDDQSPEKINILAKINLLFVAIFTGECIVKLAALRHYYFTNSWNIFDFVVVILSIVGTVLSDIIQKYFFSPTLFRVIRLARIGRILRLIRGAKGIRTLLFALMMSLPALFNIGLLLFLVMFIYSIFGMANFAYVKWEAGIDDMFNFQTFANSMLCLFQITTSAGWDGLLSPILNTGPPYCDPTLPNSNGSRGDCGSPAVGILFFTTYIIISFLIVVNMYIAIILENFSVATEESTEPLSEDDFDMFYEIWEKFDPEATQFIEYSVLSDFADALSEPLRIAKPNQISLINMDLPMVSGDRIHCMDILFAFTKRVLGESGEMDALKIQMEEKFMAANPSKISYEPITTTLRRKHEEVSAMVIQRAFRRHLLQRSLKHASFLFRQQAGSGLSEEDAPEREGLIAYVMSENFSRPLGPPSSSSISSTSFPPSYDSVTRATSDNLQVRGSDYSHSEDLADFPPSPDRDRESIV
TEST_PROTOCOL: Sodium Influx Assay (Flux), NaV1.5
PROTOCOL_CONDITIONS: read-out: Flux NaV1.5 IC50; Trex HEK293 cells, ANG2 dye, inactivated state
Where a name gives a salt, the structure may show the parent alone.
ASSAY_READOUT: pIC50
Give only the number. pIC50 is defined as minus log10 of concentration in molar units.

The molecule identified as CC[C@H](Nc1cc(F)c(S(=O)(=O)Nc2cscn2)cc1Cl)c1ccccc1 registered its pIC50 at 5.04

The molecule O=S(=O)(Nc1cscn1)c1c(F)cc(NCc2c(F)cccc2CN2CC3(CC3)C2)cc1F [Example 186, formate] showed pIC50 equal to 5.04

Kindly note the recorded pIC50 for O=S(=O)(Nc1cscn1)c1c(F)cc(NCc2c(F)ccc(F)c2CN2CCC2)cc1F , which is 4.55

Summary for this molecule, O=S(=O)(Nc1cscn1)c1cc(Cl)c(NC2(c3cc(F)ccc3F)CC2)cc1F : pIC50 is 5.35

The value of pIC50 measured for the molecule C[C@H](Nc1cc(F)c(S(=O)(=O)Nc2nccs2)cc1Cl)c1cc(Cl)ccc1F turned out to be 5.27

Memo: Cc1cc(-c2cccc(F)c2CNc2cc(F)c(S(=O)(=O)Nc3cscn3)c(F)c2)ccn1 [Example 317, formate] , reported pIC50: 4.52

Cc1cc(S(=O)(=O)Nc2cscn2)c(F)cc1NCc1c(F)cccc1CN1CC(F)C1 has a reported pIC50 of 4.52

C[C@H](Nc1cc(F)c(S(=O)(=O)Nc2nccs2)cc1Cl)c1ccc(F)c(F)c1 has a reported pIC50 of 5.16

pIC50 reported for this molecule CCC(Nc1cc(F)c(S(=O)(=O)Nc2cccc(F)n2)cc1Cl)c1ccccc1 (stereo not drawn) : 4.89

---

SYSTEM_NAME: NaV1.6 (Homo sapiens (Human), UniProt Q9UQD0)
Sequence (Q9UQD0 whole entry, looked up): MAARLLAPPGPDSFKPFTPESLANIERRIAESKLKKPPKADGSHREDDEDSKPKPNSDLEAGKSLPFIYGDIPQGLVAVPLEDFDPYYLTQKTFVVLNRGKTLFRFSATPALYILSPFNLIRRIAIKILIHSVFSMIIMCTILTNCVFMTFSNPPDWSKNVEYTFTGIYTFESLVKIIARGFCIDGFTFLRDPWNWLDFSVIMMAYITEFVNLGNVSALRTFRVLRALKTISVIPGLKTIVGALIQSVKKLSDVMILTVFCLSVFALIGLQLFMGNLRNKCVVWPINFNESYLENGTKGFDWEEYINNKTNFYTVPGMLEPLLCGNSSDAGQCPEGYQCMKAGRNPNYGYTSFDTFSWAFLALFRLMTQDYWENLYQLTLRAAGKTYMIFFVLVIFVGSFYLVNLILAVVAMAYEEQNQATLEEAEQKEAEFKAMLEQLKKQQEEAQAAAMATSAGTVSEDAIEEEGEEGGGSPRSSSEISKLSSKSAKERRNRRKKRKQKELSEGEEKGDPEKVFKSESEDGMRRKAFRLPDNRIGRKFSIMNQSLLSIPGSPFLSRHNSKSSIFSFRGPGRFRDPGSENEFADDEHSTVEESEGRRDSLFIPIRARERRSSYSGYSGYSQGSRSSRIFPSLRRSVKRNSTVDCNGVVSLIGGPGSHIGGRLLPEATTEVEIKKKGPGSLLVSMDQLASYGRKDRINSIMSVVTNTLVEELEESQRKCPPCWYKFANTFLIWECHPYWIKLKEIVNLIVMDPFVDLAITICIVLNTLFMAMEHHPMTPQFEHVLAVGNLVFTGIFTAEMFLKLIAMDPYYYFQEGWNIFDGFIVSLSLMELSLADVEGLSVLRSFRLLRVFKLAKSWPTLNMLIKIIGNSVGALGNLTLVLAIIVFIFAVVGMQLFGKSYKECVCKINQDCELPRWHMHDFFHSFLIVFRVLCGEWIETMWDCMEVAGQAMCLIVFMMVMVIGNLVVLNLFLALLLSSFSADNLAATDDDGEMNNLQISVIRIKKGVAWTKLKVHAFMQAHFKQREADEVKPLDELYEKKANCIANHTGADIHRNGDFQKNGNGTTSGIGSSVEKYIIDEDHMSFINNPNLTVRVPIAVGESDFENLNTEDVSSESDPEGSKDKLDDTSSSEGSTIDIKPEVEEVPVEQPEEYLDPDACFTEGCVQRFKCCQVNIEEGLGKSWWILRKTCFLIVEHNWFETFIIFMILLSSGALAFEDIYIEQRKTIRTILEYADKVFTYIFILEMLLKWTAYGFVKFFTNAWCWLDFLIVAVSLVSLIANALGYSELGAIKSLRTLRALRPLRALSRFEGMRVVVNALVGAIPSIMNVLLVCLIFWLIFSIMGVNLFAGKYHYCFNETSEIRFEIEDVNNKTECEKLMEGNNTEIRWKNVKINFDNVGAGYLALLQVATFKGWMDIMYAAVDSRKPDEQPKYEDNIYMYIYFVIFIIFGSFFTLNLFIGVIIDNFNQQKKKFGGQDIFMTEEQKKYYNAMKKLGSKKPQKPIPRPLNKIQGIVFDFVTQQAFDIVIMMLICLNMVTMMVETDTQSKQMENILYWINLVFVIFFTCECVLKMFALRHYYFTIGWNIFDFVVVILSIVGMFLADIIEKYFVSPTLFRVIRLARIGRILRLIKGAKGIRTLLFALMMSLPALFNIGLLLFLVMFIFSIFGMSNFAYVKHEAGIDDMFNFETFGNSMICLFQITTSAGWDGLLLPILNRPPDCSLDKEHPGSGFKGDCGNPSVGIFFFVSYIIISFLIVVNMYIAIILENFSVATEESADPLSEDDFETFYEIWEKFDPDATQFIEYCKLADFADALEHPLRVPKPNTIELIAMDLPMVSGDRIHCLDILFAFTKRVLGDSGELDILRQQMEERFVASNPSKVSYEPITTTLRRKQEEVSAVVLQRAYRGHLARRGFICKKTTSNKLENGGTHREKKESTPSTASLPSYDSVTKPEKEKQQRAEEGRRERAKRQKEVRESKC
Sequence (Q07699 whole entry partner, looked up): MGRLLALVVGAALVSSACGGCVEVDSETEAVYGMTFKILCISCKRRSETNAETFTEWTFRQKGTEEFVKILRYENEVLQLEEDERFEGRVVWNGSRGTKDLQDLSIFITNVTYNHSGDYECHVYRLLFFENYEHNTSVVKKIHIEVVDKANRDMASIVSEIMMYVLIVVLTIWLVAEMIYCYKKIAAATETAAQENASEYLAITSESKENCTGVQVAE
TEST_PROTOCOL: Sodium Influx Assay (Flux), NaV1.6
Type: cell-based
PROTOCOL_CONDITIONS: Trex HEK293 cells, ANG2 dye, inactivated state
ASSAY_READOUT: IC50

Field IC50 (entry O=S(=O)(Nc1cscn1)c1c(F)cc(NCc2c(Cl)cccc2CN2CCC2)cc1F [Example 290, 2,2,2-trifluoroacetate] ) reads 101 nM

So, C[C@H](Nc1cc(F)c(S(=O)(=O)Nc2nccs2)cc1Cl)c1ccccc1F [Example 45] ? Its IC50 was 108 nM

Form: compound = CC[C@H](Nc1cc(F)c(S(=O)(=O)Nc2nccs2)cc1Cl)c1ccccc1 [Example 40] ; IC50 = 123 nM

---

SYSTEM_NAME: NaV1.6 (Homo sapiens (Human), UniProt Q9UQD0)
TEST_PROTOCOL: Sodium Influx Assay (Flux), NaV1.6;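 further: Tetracycline-induced cells, compounds applied for one hour at room temperature with modulators holding channels open, IC50 from percent inhibition of sodium influx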
Assay type: cell-based
PROTOCOL_CONDITIONS: Trex HEK293 cells, ANG2 dye, inactivated state
Structures can show the parent of a compound that is named as a salt.
Task for the reader: assign each of the following molecules its reported IC50.
Quick note: unit goes after the number.

The recorded IC50 for Cc1cc(NS(=O)(=O)c2cc(Cl)c(N[C@@H](C)c3ccccc3Cl)cc2F)ncn1 is 4.28 µM

Lab note: C[C@H](Oc1cc(F)c(S(=O)(=O)Nc2nccs2)cc1Cl)c1ccc(Cl)c(Cl)c1 gave IC50 of 14.5 µM

Notebook: CN(C)Cc1cccc(F)c1CNc1cc(F)c(S(=O)(=O)Nc2cscn2)c(F)c1 [Example 165, formate] , IC50 read as 0.361 µM

# credit: patent US11174268B2
